Taken from paper PMC10397247.

# Assay System: T1, 4H3133-AA
# T1 chain: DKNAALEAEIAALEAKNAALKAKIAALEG
# Protocol: two-hybrid library CCmax;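 note: natural log of median RNA to DNA barcode read ratio; higher means stronger binding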
# Experimental Parameters: mean of both orientations
Outcome Measure: interaction score

Reference set, count: 3
>>> observed_value("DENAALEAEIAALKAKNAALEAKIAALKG [4H1142-AA]")
-0.11
>>> observed_value("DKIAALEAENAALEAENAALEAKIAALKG [4H2198-AA]")
-0.581
>>> observed_value("DKIAALEAKNAALKAKNAALKAEIAALEG [4H2553-AA]")
-2.05

a. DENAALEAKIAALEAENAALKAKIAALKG [4H1310-AA]
b. DKIAALKAKNAALKAKIAALKAKNAALKG [4H3056-AA]
Two entries are listed, a and b . Which one carries the higher interaction score? I would appreciate it if you answered with the label of your choice. a
